Provenance of the data: paper PMC4503722

Please respond with reported pIC50 for every item in the list.
System: SW480
Experiment: cells
Type: cell-based
Details: Homo sapiens, SW480, 72 h, read-out: SW480 viab. IC50
Give bare numbers, as −log10 of the molar value.

Some compounds with known pIC50 results, for comparison:
* CCCCCCCCCCCCCCCCNc1ccc(C(=O)O)cc1 [cetaben sodium, sodium p-(hexadecylamino) benzoate, reference compound] | 5.36
* CC(C)C[C@H](NC(=O)[C@H](Cc1ccccc1)NC(=O)c1cnccn1)B(O)O [bortezomib, reference compound] | 8.30

Kindly review the next compound as well.
Form: compound = CSc1ccc2c(c1)C(N1CCN(C)CC1)Cc1ccccc1S2 (stereo not shown) [metitepine, reference compound] ; pIC50 = 5.72

----------
Please respond with reported EC50 for every item in the list.
Tested on: INS-1E cells
Experiment: cells
Type: cell-based, rat
Details: Rattus norvegicus, INS-1E, read-out: Insulin Secretion

* CCC(C)n1ncn(-c2ccc(N3CCN(c4ccc(OCC5COC(Cn6cncn6)(c6ccc(Cl)cc6Cl)O5)cc4)CC3)cc2)c1=O (stereo not shown) | > 10 µM
* Cc1cc(O)c2c3c4c(cc(O)c13)C(C)(C)C(=O)c1c(O)cc(O)c(c1-4)C2=O | > 10 µM
* Nc1nc2nc[nH]c2c(=S)[nH]1 | > 10 µM

Kindly review the next compound as well.
The value of EC50 recorded for CN(C)CCC=C1c2ccccc2CCc2ccccc21 [amitriptyline, reference compound] when tested on INS-1E cells reads 3 µM

----------
Please respond with reported pIC50 for every item in the list.
System: SNU-C1
Experiment: cells
Format: cell-based
Details: Homo sapiens, SNU-C1, basal; read-out: Basal_Viability ATP SNU-C1
Numbers only, as −log10 of the molar value.

Give one value of pIC50 per listed molecule.
1. COc1cccc2c1C(=O)c1c(O)c3c(c(O)c1C2=O)C[C@@](O)(C(C)=O)C[C@@H]3O[C@H]1C[C@H](N)[C@H](O)[C@H](C)O1
2. CN(C)CCOC(c1ccccc1)c1ccc(Br)cc1 (stereo not shown)
3. CCN(CC)CCCC(C)Nc1c2ccc(Cl)cc2nc2ccc(OC)cc12 (stereo not shown)
4. O=C(Nc1ccc(Oc2ccc(Cl)cc2)c(Cl)c1)c1cc(I)cc(I)c1O [Rafoxanide]

Output line:
6.47
5.51
5.42
7.84

----------
System: HeLa cells
Experiment: cells
Format: cell-based
Settings: 2N
Please respond with reported IC50/EC50, Hela CellCycMod PI 2N (assay number 14) for every item in the list.

- Cn1cnc([N+](=O)[O-])c1Sc1ncnc2nc[nH]c12: > 10 µM

Give one value of IC50/EC50, Hela CellCycMod PI 2N (assay number 14) per listed compound.
1. COC(=O)Nc1nc2ccc([S+]([O-])c3ccccc3)cc2[nH]1 (stereo not shown)
2. NC(N)=NN=C(/C=C/c1ccc([N+](=O)[O-])o1)/C=C/c1ccc([N+](=O)[O-])o1
3. Clc1ccccc1C(c1ccccc1)(c1ccccc1)n1ccnc1
4. CN(C)/N=N/c1nc[nH]c1C(N)=O

Output line:
1. 0.3263 µM
2. > 10 µM
3. > 10 µM
4. > 10 µM

Give one value of IC50/EC50, Hela CellCycMod PI 2N (assay number 14) per listed compound.
1. CC(=O)N(O)CCCCCNC(=O)CCC(=O)N(O)CCCCCNC(=O)CCC(=O)N(O)CCCCCN
2. CCCSc1ccc2nc(NC(=O)OC)[nH]c2c1

Output line:
> 10 µM
0.0656 µM

----------
Tested on: nuclear β-catenin in C2C12 cells
Experiment: cells
Assay type: cell-based
Details: Mus musculus; IC50 / EC50; C2C12 beta-catenin translocation; read-out: Wnt Pathway
*1 amine or outer side, *2 acyl side, *3 side chain or, on linkers, in order; H or OH if unused. Where a SMILES comes first, the peptide text is derived from it. Bridges are numbered along the chain shown (N, C = ends). Roman numbers before positions name the chains, in order. [ ]: non-standard residue; d: D form. Actinocin(9to1) = Cc1c2oc3c(C)ccc(C(=O)[*:1])c3nc-2c(C(=O)[*:2])c(N)c1=O; NMeV = CN[C@H](C(=O)O)C(C)C; Sar = CNCC(=O)O
observable: EC50 (nM)
Answers are plain numbers, in nM.

- Cc1c2oc3c(C)ccc(C(=O)N[C@@H]4C(=O)N[C@H](C(C)C)C(=O)N5CCC[C@H]5C(=O)N(C)CC(=O)N(C)[C@@H](C(C)C)C(=O)O[C@@H]4C)c3nc-2c(C(=O)N[C@@H]2C(=O)N[C@H](C(C)C)C(=O)N3CCC[C@H]3C(=O)N(C)CC(=O)N(C)[C@@H](C(C)C)C(=O)O[C@@H]2C)c(N)c1=O [Dactinomycin] (I: T[dV]P[Sar][NMeV] / II: T[dV]P[Sar][NMeV]; ester I:1-I:C, II:1-II:C; linker I:N-II:N via Actinocin(9to1)): 1.5

Form: compound = C=C(C)[C@H]1Cc2c(ccc3c2O[C@@H]2COc4cc(OC)c(OC)cc4[C@@H]2C3=O)O1 [rotenone, reference compound] ; EC50 = 254

----------
Tested on: SW480
Experiment: cells
Assay type: cell-based
Details: read-out: Basal_Viability ATP SW480
Where a name gives a salt, the structure may show the parent alone.
observable: IC50

* [O-][n+]1ccccc1SSc1cccc[n+]1[O-] [Dipyrithione magnesium sulfate] | > 20 µM
* Oc1ccc([C@@H]2CNCc3c2ccc(O)c3O)cc1O | > 20 µM

Kindly review the next compound as well.
Form: compound = CC(=O)Oc1ccc(C2(c3ccc(OC(C)=O)cc3)Oc3ccccc3NC2=O)cc1 [Bisoxatin diacetate] ; IC50 = 9.19 µM

----------
Please respond with reported log10(IC50) for every item in the list.
Tested on: endothelial tube formation in co-cultures of ECFCs and ADSCs treated with VEGF
Experiment: cells
Assay type: cell-based, human
Conditions: Homo sapiens; read-out: Anti-Angiogenesis
Quick note: numbers are log10 of IC50, with nM as the unit.

Some molecules with known log10(IC50) results, for comparison:
* CCCOc1ccc2nc(NC(=O)OC)[nH]c2c1 | 2.52
* CCCCCCCCCCCCCCCC[N+](C)(C)CCN(Cc1ccc(OC)cc1)c1ncccn1 [Tonzonium bromide] | 3.49
* COC(=O)Nc1nc2ccc(Sc3ccccc3)cc2[nH]1 | 2.32
* C[C@@]12C(=O)OC(=O)[C@]1(C)[C@H]1CC[C@@H]2O1 | 3.09

Form: molecule = O=C(Nc1ccc(Br)cc1)c1cc(Br)cc(Br)c1O ; log10(IC50) = 3.26

----------
System: HT-29
Experiment: cells
Type: cell-based
Conditions: Homo sapiens, HT-29; Table 2; 72 h, Cell TiterGlo, non-adherent; 20 coded; read-out: HT-29 viab. IC50
observable: IC50 (µM)
Give bare numbers, in µM.

Form: compound = Cc1ccc2nc(N)[nH]c(=O)c2c1Sc1ccncc1 [nolatrexed, reference compound] ; IC50 = 4.7

----------
Test system: RKO
Test: cells
Type: cell-based
Conditions: Homo sapiens, RKO, 72 h, read-out: RKO viab. IC50
observable: pIC50
Numbers only, as −log10 of the molar value.

Form: compound = Cc1nc(N)nc(N)c1-c1ccc(Cl)c(Cl)c1 [metoprine, reference compound] ; pIC50 = 6.92

----------
System: Colo320
Experiment: cells
Type: cell-based
Conditions: basal
Please respond with reported IC50/EC50, Basal_Viability ATP Colo 320 (assay number 27) for every item in the list.
Numbers only, in µM.

Some compounds with known IC50/EC50, Basal_Viability ATP Colo 320 (assay number 27) results, for comparison:
• NC(=O)n1c(O)c(C(=O)c2cccs2)c2cc(Cl)ccc21 = 1.643
• OCCN1CCN(CC/C=C2/c3ccccc3Sc3ccc(C(F)(F)F)cc32)CC1 = 2.3138
• CCCSc1ccc2nc(NC(=O)OC)[nH]c2c1 = 0.502
• O=C1NCCN1CCN1CCC(c2cn(-c3ccc(F)cc3)c3ccc(Cl)cc23)CC1 = 3.6991
• N/C(=N\N=C\c1ccc(Cl)cc1)N/N=C/c1ccc(Cl)cc1 = 0.4583
• CN1CCN(CCCN2c3ccccc3Sc3ccc(S(=O)(=O)N(C)C)cc32)CC1 = 8.1661

Form: compound = O=c1c(-c2ccccc2)c1-c1ccccc1 ; IC50/EC50, Basal_Viability ATP Colo 320 (assay number 27) = 3.1012

----------
Tested on: Colo320
Test: cells
Format: cell-based
Details: Homo sapiens, COLO 320, read-out: Basal_Viability ATP Colo 320
Please respond with reported IC50 for every item in the list.
One number for each entry, in µM.

Some molecules with known IC50 results, for comparison:
* CC(C)n1c(/C=C/C(O)CC(O)CC(=O)O)c(-c2ccc(F)cc2)c2ccccc21 (stereo not shown) [fluvastatin, reference compound] | 13
* O=C(NOCC1CC1)c1ccc(F)c(F)c1Nc1ccc(I)cc1Cl [PD-184352, reference compound] | 0.848
* COc1ccc(-c2ccc3cc(C(=O)O)ccc3c2)cc1C12CC3CC(CC(C3)C1)C2 [Adapalene] | 0.787
* Cn1cnc([N+](=O)[O-])c1Sc1ncnc2nc[nH]c12 [Azathioprine] | 10.3
* CO[C@@]12[C@H](COC(N)=O)C3=C(C(=O)C(C)=C(N)C3=O)N1C[C@@H]1N[C@@H]12 [Mitomycin] | 12.6
* O=Cc1ccc(O)c(O)c1O [2,3,4-Trihydroxybenzaldehyde] | 9.08

Give one value of IC50 per listed molecule.
1. COCc1c(C(C)C)nc(C(C)C)c(/C=C/[C@@H](O)C[C@@H](O)CC(=O)O)c1-c1ccc(F)cc1 [cerivastatin, reference compound]
2. CC[C@@]1(O)C(=O)OCc2c1cc1n(c2=O)Cc2cc3c(CN(C)C)c(O)ccc3nc2-1 [topotecan]
3. Nc1nc2nc[nH]c2c(=S)[nH]1 [Tioguanine]

Output line:
[1.92, 9.42, 0.373]
